# Tested on: EKVX NSCLC
# method: NCI-60 one-dose screen, 48 h (100 = growth as untreated, 0 = no growth, -100 = all killed)
# condition.details: 10 µM
Compounds without any hit were thinned out: in the full panel of roughly 83,000, 20% have a hit.
// label = t if growth is not less than 90%, otherwise f

| compound | cat |
| --- | --- |
| O=[P@@]1(c2ccccc2)O[C@H](COCc2ccccc2)[C@@H](OCc2ccccc2)[C@H](OCc2ccccc2)[C@H]1O | f |
| O=C1/C(=C/c2ccc(Cl)cc2)SC(=Nc2ccc(Cl)cc2)N1Cc1nc2ccccc2[nH]1 | f |
| O=C(CNC(=O)OCc1ccccc1)NCC(=O)Oc1ccc([N+](=O)[O-])cc1 | t |
| Oc1[nH]c2cc(Cl)ccc2c1/C=c1/ccc2c(c1)N=C(c1cc(F)cc(F)c1)N=2 | f |
| c1ccc(C(NC2CC3CCC2C3)c2ccccc2)cc1 (stereo not drawn) | t |
| CCN(CC)CCCC(C)Nc1ccc2ccc(Cl)cc2n1 (stereo not drawn) | t |
| COc1ccc2c(c1)/C(=C\c1c[nH]c3ccc(OC)cc13)C(=O)N2 | f |
